Each recorded value in this set is attributed to paper PMC11946789.

measurement_target: homomeric rat ASIC1b (rASIC1b) (Rattus norvegicus)
Construct: expressed in transfected cells; host or cells: Xenopus laevis oocytes, mRNA microinjected
Sequence (P55926 1-559 isoform P55926-3): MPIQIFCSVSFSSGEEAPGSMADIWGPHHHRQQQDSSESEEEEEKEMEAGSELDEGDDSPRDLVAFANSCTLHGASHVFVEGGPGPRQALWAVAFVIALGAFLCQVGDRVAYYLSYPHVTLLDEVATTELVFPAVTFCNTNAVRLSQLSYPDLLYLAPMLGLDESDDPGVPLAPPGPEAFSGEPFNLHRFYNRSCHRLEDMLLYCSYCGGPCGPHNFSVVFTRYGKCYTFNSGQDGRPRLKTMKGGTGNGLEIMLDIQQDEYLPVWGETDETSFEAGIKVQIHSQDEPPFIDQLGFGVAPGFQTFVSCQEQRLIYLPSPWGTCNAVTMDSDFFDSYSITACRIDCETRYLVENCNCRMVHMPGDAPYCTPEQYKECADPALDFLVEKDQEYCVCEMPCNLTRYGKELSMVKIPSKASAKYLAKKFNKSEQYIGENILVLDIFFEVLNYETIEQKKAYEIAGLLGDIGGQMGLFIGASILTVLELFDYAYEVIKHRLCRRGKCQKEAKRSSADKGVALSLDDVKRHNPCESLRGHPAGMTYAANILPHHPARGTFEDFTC
procedure_summary: TEVC recordings, homomeric rASIC1b
Type: cell-based
condition: pH stimulus 5.5, conditioning pH 7.4, peptide applied 30 s before stimulus, Xenopus laevis oocytes; mean ± SEM, 5 to 7 cells
Bridges are numbered along the chain shown (N, C = ends). Where no end group is shown, it is not given here.
property_measured: IC50 (nM)
Field format: number, assumed nM, no unit text.

// IC50 value for LKCYQHGKVVTCHRDAKFCYHNTGLPFRNLKLILQGCSSSCSETENNKCCSTDRCNK (disulfide 3-19, 12-37, 41-49, 50-55 (inferred)) [Mamb-AL] : 22

====

measurement_target: homomeric rASIC1a (rat ASIC1a) (Rattus norvegicus, UniProt P55926)
Construct: expressed in transfected cells; host or cells: Xenopus laevis oocytes, mRNA microinjected
Sequence (P55926 whole entry): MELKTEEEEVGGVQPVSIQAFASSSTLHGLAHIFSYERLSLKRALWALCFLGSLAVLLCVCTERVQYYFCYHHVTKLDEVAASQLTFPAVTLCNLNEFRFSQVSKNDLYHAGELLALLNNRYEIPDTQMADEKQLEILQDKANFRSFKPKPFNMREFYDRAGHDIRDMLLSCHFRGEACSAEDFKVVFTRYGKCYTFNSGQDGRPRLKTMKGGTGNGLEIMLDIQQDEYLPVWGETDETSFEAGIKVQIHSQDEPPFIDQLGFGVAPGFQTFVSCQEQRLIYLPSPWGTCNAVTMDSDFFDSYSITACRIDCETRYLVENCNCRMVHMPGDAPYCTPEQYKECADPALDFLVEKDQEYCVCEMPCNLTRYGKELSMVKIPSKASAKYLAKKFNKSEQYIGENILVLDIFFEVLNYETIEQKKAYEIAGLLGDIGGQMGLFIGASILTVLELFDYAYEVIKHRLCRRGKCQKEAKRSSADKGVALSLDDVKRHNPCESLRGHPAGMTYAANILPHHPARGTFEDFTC
procedure_summary: TEVC recordings, homomeric rASIC1a
Type: cell-based
condition: pH stimulus 6.7, conditioning pH 7.4, Vh −50 mV, peptide applied 30 s before activation, Xenopus laevis oocytes; mean ± S.E.M., n = 6; read-out: half-maximal inhibitory concentration (IC50)
Bridges are numbered along the chain shown (N, C = ends). Where no end group is shown, it is not given here.
property_measured: pIC50
Just the number, please; pIC50 means minus log10 of the concentration in mol/L.

LKCYQHGKVVTCHRDAKFCYHNTGLPFRNLKLILQGCSSSCSETENNKCCSTDRCNK (disulfide 3-19, 12-37, 41-49, 50-55 (inferred)) [Mamb-AL] has a reported pIC50 of 7.60
